Cited source for all entries: ChEMBL document CHEMBL3988442

Percent Effect values by entry
Biological target: AMP-activated protein kinase, AMPK (Homo sapiens) (UniProt P54646+O43741+P54619+Q9UGJ0+Q9Y478+Q13131+Q9UGI9)
Assay: AMP-dependent Kinase enzyme assay. An in vitro enzyme assay that detects ADP turnover that is directly proportional to AMPK activity. This uses naive AMPK that is activated during the assay with MK-8722
Assay type: functional
Parameters: scale not given: direction of the effect not stated beside the values
Conditions: 30 µM
API: value field is a number in %; no unit string.

Recorded Percent Effect, per entry:
1) CCOc1ccc(Cl)c(C(=O)N2CCN(c3cnccn3)CC2)n1 = -2.68
2) O=C(CN1CCc2ccccc21)Nc1ccc(OC(F)F)cc1 = 0.216
3) CCN(Cc1ccc2c(c1)OCO2)Cc1nc(C)no1 = -7.63
4) Cn1c(NCC(O)c2ccc(F)cc2F)c(C#N)c(=O)n(C)c1=O (stereo not given) = -12.9

We now examine a further compound.
Input: // lookup Percent Effect for `O=C(c1cnccn1)N1CCOC2(CCN(Cc3ccsc3)CC2)C1`
Output: 2.03

###

Percent Effect values by entry
Species: Homo sapiens
Experiment: To identify inhibition of the IFN signalling (Jak-Stat) pathway via expression of an eGFP reporter gene under the control of an IFN-stimulated response element (ISRE) containing MxA promoter.
Format: functional
Set-up: scale not given: direction of the effect not stated beside the values
Conditions: 30 µM
API: value field is a number in %; no unit string.

Recorded Percent Effect, per entry:
1) CN(C)c1cc(CNC(=O)c2cn(-c3ccc(F)cc3)nn2)ccn1 = 11.3
2) Cc1ccn(-c2ccccc2NCc2ncc[nH]2)n1 = -4.65
3) COc1ccc(Br)c(C(=O)N2CCC(c3n[nH]c(C4CC4)n3)CC2)c1 = 4.22
4) N#CCCN(C(=O)CN1CCCC1c1ccsc1)c1ccccc1F (centres undefined) = 16.7
5) CO[C@@H]1CC[C@H]2[C@H]1OCCN2C(=O)C1=CCCC1 = -1.44

Input: // lookup Percent Effect for Cc1cnn(CC2CCCCN2C(=O)c2ccnc(N(C)C)c2)c1 (centres undefined)
Output: 5.85

Input: // lookup Percent Effect for `Cn1cc(NC(=O)Cn2c(CS(C)(=O)=O)nc3ccccc32)cn1`
Output: -13.6

Input: // lookup Percent Effect for `O=C(NCCOc1ccc(F)c(F)c1)NCc1cccc(CO)c1`
Output: 19.7

Input: // lookup Percent Effect for Cc1cccc(CN2CCC3(CCCN(C(=O)c4ccsc4)C3)C2=O)n1 (centres undefined)
Output: -3.21

Input: // lookup Percent Effect for Cc1csc(C2CCCCN2C(=O)CN(C)C2CC2)n1 (centres undefined)
Output: -15.9

###

Target: Tyrosyl-tRNA synthetase, putative (Trypanosoma cruzi (strain CL Brener)) (UniProt Q4DSP6)
Sequence (Q4DSP6 as listed by the source): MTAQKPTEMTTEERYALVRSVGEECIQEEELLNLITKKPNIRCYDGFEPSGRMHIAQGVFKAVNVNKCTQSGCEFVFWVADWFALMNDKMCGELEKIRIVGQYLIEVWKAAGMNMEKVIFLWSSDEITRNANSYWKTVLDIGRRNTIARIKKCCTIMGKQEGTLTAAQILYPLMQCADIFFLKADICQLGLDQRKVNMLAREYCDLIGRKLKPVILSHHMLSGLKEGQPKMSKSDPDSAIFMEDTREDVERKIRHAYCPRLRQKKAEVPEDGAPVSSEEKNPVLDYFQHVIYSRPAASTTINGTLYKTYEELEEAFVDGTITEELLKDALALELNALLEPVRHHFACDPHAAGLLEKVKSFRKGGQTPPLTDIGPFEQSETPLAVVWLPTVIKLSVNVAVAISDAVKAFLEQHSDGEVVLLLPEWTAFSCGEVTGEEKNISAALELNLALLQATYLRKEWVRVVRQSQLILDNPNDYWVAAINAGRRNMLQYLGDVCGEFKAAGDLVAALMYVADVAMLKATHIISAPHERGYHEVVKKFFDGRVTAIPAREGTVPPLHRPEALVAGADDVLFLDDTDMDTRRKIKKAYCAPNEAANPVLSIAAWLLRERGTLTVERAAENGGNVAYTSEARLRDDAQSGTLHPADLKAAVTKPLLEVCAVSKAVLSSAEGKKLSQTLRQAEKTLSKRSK
Experiment: Trypanosoma cruzi tyrosyl tRNA synthetase (TcYRS) _High Tyrosine SOP; also: in the data most compounds retested in dose-response had high values
Type: functional
Parameters: scale not given: direction of the effect not stated beside the values
Conditions: 30 µM
Percent Effect values by entry
API: value field is a number in %; no unit string.

Recorded Percent Effect, per entry:
1. CCOc1cccc(C(=O)NCCC(=O)Nc2ccncc2)c1 = 4.25
2. O=C(COc1ccc(C(F)(F)F)cc1)NS(=O)(=O)c1cccnc1 = -1.47

Input: // lookup Percent Effect for COc1ccc(CN2CCCCC2CNC(=O)OC(C)(C)C)cc1F (stereo unspecified)
Output: -2.15

Input: // lookup Percent Effect for `Cc1cc(-c2cnn(CCNC(=O)c3cccnc3)c2C2CC2)on1`
Output: 5.38

Input: // lookup Percent Effect for `CCCn1cc(C(=O)N(C)Cc2nc(-c3ccccn3)no2)c(C)n1`
Output: 6.01

Input: // lookup Percent Effect for `C[C@@H]1CN(C(=O)c2ccsc2)C[C@]12CCN(c1ccsc1)C2=O`
Output: 5.32

Input: // lookup Percent Effect for `O=C(Nc1cnn(CCN2CCOCC2)c1)c1ccccc1O`
Output: 6.37

Input: // lookup Percent Effect for Cc1nc(CN2CCOC(CN(C)c3cccnn3)C2)cs1 (stereo unspecified)
Output: 2.86

Input: // lookup Percent Effect for COc1ccccc1C1CNC(=O)c2nc(-c3cnn(C)c3)[nH]c2C1 (stereo unspecified)
Output: 5.82

Input: // lookup Percent Effect for `O=C1[C@@H]2CCN(Cc3ccoc3)C[C@@H]2OCCN1Cc1cccnc1`
Output: 4.25

Input: // lookup Percent Effect for `CC(=O)c1cccc(OCCCC(=O)N(C)Cc2ccccn2)c1`
Output: -0.529

###

Organism: Homo sapiens
Test: To identify inhibition of the IFN signalling (Jak-Stat) pathway via expression of an eGFP reporter gene under the control of an IFN-stimulated response element (ISRE) containing MxA promoter.
Type: functional
Parameters: scale not given: direction of the effect not stated beside the values
Details: 30 µM
Percent Effect values by entry
API: value field is a number in %; no unit string.

Recorded Percent Effect, per entry:
1. CC1CCN(CCNC(=O)c2ccccc2N2CCOCC2)CC1 = 5.31
2. COc1c(CNC(c2nccn2C)C(C)C)c(C)nn1C (centres undefined) = -7.86
3. Cc1nccc(C2CN(Cc3cc[nH]n3)CCO2)n1 (centres undefined) = -10.9
4. CC(C)NC(=O)N1CCN(CC2CC2)CC2(CC(=O)N(C)C2)C1 (centres undefined) = -5.18
5. c1cnn(Cc2cn3c(n2)CN(Cc2nccs2)CC3)c1 = 4.15
6. CCOCC1CN(S(C)(=O)=O)Cc2ncn(CC3CC3)c21 (centres undefined) = -4.29
7. Cc1ccc(C2COCCN2C(=O)c2ccc(CN(C)C)cc2)o1 (centres undefined) = 0.868
8. N#Cc1ccc(NCCNc2ccc(C(F)(F)F)cn2)nc1 = 104

Input: // lookup Percent Effect for O=C(Nc1nncs1)NC1CCc2ccccc21 (centres undefined)
Output: 40.4

Input: // lookup Percent Effect for c1cc2n(n1)CC(CNCc1ccc(OCC3CC3)nc1)CN2 (centres undefined)
Output: -0.525

Input: // lookup Percent Effect for `COc1ccc(S(=O)(=O)N2CCC(S(C)(=O)=O)CC2)cc1C`
Output: -5.43

Input: // lookup Percent Effect for CC(CCN1CCn2nc(CNC(=O)N(C)C)cc2C1)c1ccccc1 (centres undefined)
Output: 16.3

Input: // lookup Percent Effect for `c1ccc(CN2CC[C@@H]3O[C@@H](COCC4CCOCC4)CC[C@@H]32)nc1`
Output: -2.6

Input: // lookup Percent Effect for Cn1cccc1CNC(=O)N(CCO)C1CCCc2ccccc21 (centres undefined)
Output: 1.76

Input: // lookup Percent Effect for `O=C(CSc1ccc2c(c1)OCCO2)NS(=O)(=O)C1CCCCC1`
Output: 9.49

Input: // lookup Percent Effect for `COCCn1ccc(=O)c(OCC(=O)Nc2ccccc2)c1C`
Output: -6.23

Input: // lookup Percent Effect for Cc1nn(C)c(Cl)c1C1CCCN1C(=O)c1ccc2nncn2c1 (centres undefined)
Output: -2.92

Input: // lookup Percent Effect for `Cn1cc(CN2CCn3cc(CNC(=O)C4CCC4)nc3C2)cn1`
Output: 0.15

Input: // lookup Percent Effect for `CC(=O)NCC1CCN(C(=O)c2csc(-c3ccc(C)cc3C)n2)CC1`
Output: 35.7

###

Molecular target: Chromo domain-containing protein 1 (Saccharomyces cerevisiae (strain ATCC 204508 / S288c) (Baker's yeast)) (UniProt P32657)
Sequence (P32657 whole entry, the tested form may be a part): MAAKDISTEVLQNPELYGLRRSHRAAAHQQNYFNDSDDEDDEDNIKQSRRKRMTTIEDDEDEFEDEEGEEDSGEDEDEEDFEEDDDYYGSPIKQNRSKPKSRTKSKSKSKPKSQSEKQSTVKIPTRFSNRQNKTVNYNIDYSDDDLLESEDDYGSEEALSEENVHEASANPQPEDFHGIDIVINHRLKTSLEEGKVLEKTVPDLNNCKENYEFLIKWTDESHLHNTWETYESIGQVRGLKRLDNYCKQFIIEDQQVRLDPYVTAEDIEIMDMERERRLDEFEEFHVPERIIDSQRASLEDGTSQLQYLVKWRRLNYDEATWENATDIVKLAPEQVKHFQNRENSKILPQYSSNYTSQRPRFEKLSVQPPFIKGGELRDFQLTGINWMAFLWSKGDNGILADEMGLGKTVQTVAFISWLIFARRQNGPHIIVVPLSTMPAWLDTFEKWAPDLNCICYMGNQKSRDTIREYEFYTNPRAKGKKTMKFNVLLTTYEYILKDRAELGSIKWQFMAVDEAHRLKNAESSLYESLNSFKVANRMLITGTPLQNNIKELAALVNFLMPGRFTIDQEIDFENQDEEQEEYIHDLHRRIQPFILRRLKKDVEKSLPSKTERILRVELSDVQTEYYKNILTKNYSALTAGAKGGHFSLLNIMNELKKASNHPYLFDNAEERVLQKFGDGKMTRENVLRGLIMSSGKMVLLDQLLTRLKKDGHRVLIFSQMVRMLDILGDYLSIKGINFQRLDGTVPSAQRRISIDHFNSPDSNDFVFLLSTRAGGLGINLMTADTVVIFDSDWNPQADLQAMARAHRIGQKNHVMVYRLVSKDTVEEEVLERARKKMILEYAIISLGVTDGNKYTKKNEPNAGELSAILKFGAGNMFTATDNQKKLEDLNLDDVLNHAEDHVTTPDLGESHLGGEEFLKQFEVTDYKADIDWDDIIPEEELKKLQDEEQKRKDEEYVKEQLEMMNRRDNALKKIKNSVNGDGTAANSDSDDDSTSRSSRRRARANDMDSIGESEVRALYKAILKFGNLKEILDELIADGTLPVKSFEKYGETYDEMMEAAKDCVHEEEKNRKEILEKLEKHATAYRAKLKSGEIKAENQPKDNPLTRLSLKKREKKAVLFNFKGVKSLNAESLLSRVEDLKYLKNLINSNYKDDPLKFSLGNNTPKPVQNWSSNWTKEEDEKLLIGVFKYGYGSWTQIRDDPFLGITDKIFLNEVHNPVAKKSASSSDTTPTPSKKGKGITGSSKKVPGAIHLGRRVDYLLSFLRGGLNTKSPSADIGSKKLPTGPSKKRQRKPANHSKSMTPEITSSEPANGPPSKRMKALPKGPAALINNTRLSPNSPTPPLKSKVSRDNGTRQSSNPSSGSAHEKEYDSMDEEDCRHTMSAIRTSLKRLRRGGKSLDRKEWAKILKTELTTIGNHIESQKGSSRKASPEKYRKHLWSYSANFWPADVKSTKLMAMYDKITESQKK
Experiment: ScCHD-1 Enzyme Inhibition Assay; also: in the data most compounds retested in dose-response had high values
Assay type: functional
Parameters: scale not given: direction of the effect not stated beside the values
Settings: 30 µM
Observable: Percent Effect (%)
API: value field is a number in %; no unit string.

Recorded Percent Effect, per entry:
1. COc1ccc(CN2CCC3(CC(=O)N(c4cncnc4)C3)C2)cc1 (stereo unspecified) = -3.32
2. c1cnn(-c2ccc(CN3CCOC(Cn4cncn4)C3)cc2)c1 (stereo unspecified) = -8.36
3. N#Cc1ccc(N2CCN(C(=O)c3cc(C4CC4)[nH]n3)CC2)c(F)c1 = -7.65

Input: // lookup Percent Effect for `CC(=O)N1[C@H](Cn2cncn2)C[C@@H]2CN(c3ccc(C)nn3)CC[C@@H]21`
Output: -3.45

Input: // lookup Percent Effect for `COC(=O)N1CCCN(C(=O)NCc2ccc(Cl)s2)CC1`
Output: -27.7

Input: // lookup Percent Effect for COc1ccc(-n2ccc(C(=O)N3CCC(C(N)=O)C3)n2)cc1 (stereo unspecified)
Output: -1.19

###

Biological target: Chromo domain-containing protein 1 (Saccharomyces cerevisiae (strain ATCC 204508 / S288c) (Baker's yeast)) (UniProt P32657)
Assay: ScCHD-1 Enzyme Inhibition Assay; also: in the data most compounds retested in dose-response had high values
Format: functional
Parameters: scale not given: direction of the effect not stated beside the values
Conditions: 30 µM
Observable: Percent Effect (%)
API: value field is a number in %; no unit string.

Recorded Percent Effect, per entry:
1. CC(=O)Nc1ccc(S(=O)(=O)NC(=O)CCC2CCCO2)cc1 (configuration not stated) = -16.9
2. CCc1cnc(N2CCC(=O)N(CC3CC3)C(C(C)C)C2)nc1 (configuration not stated) = -1.36
3. CCN(CC)C(=O)c1ccn(COc2cc(C)cc(C)c2)n1 = -12.1
4. NC(=O)CN1CCCN(C(=O)c2ccn(-c3ccccc3)n2)CC1 = -4.05
5. CCC(C)(C)NC(=O)Cn1nc(C)nc1-c1cccc(C)c1 = -6.87

Input: // lookup Percent Effect for COC(=O)c1ccc(N2CCN(CCN3CCOCC3)C(C)C2)cc1 (configuration not stated)
Output: -4.27

Input: // lookup Percent Effect for Cc1cc(-c2nnc(SCC(=O)O)n2C(C)c2ccccc2)nn1C (configuration not stated)
Output: -1.69
